- Test system: Histophilus somni
- Assay Summary: minimum inhibitory concentration (MIC)
- Conditions: isolate (source animal id): 157
Property Label: minimum inhibitory concentration

Q: Requested field: minimum inhibitory concentration. Item: CC[C@H]1OC(=O)C[C@@H](O)[C@H](C)[C@@H](O[C@@H]2O[C@H](C)[C@@H](O[C@H]3C[C@@](C)(O)[C@@H](O)[C@H](C)O3)[C@H](N(C)C)[C@H]2O)[C@@H](CC=O)C[C@@H](C)C(=O)/C=C/C(C)=C/[C@@H]1CO[C@@H]1O[C@H](C)[C@@H](O)[C@@H](OC)[C@H]1OC
Result: 16 µg/mL

Q: Entry CC[C@H]1OC(=O)C[C@@H](O)[C@H](C)[C@@H](O[C@@H]2O[C@H](C)[C@@H](O)[C@H](N(C)C)[C@H]2O)[C@@H](CCN2C[C@H](C)C[C@H](C)C2)C[C@@H](C)C(=O)/C=C/C(C)=C/[C@@H]1CO[C@@H]1O[C@H](C)[C@@H](O)[C@@H](OC)[C@H]1OC please
Result: 16 µg/mL

Q: Entry CC1(C)S[C@@H]2[C@H](NC(=O)Cc3ccccc3)C(=O)N2[C@H]1C(=O)O please
Result: ≤ 0.12 µg/mL

Q: Entry COc1cc(NS(=O)(=O)c2ccc(N)cc2)nc(OC)n1 please
Result: ≤ 256 µg/mL

Q: Entry COc1cc(Cc2cnc(N)nc2N)cc(OC)c1OC.Cc1cc(NS(=O)(=O)c2ccc(N)cc2)no1 please
Result: ≤ 2 µg/mL

Q: Entry CN[C@@H]1[C@H](O)[C@H](NC)[C@H]2O[C@@]3(O)C(=O)C[C@@H](C)O[C@H]3O[C@@H]2[C@H]1O please
Result: > 64 µg/mL

Q: Entry CC[C@H]1OC(=O)C[C@@H](O)[C@H](C)[C@@H](O[C@@H]2O[C@H](C)[C@@H](O)[C@H](N(C)C)[C@H]2O)[C@@H](CCN2CCCCC2)C[C@@H](C)C(=O)/C=C/C(C)=C/[C@@H]1CN1CCCCC1 please
Result: 8 µg/mL

###

- Tested on: Pasteurella multocida
- Assay Summary: minimum inhibitory concentration (MIC)
- Conditions: isolate (source animal id): 296
Property Label: minimum inhibitory concentration (µg/mL)
Dear colleague, please return just the value in µg/mL, with no unit written.

Q: Requested field: minimum inhibitory concentration. Item: CS(=O)(=O)c1ccc([C@@H](O)[C@@H](CF)NC(=O)C(Cl)Cl)cc1
Result: 0.5

Q: Entry CCCN1C[C@H](C)[C@@H](O)[C@](C)(O)[C@@H](CC)OC(=O)[C@H](C)[C@@H](O[C@H]2C[C@@](C)(OC)[C@@H](O)[C@H](C)O2)[C@H](C)[C@@H](O[C@@H]2O[C@H](C)C[C@H](N(C)C)[C@H]2O)[C@](C)(O)C[C@H]1C please
Result: 8

###

- Tested on: Pasteurella multocida
- Assay Summary: minimum inhibitory concentration (MIC)
- Conditions: isolate (source animal id): 146
Would you mind telling me the reported minimum inhibitory concentration of each entry?
Dear colleague, please return just the value in µg/mL, with no unit written.

Q: Requested field: minimum inhibitory concentration. Item: CCCN1C[C@H](C)[C@@H](O)[C@](C)(O)[C@@H](CC)OC(=O)[C@H](C)[C@@H](O[C@H]2C[C@@](C)(OC)[C@@H](O)[C@H](C)O2)[C@H](C)[C@@H](O[C@@H]2O[C@H](C)C[C@H](N(C)C)[C@H]2O)[C@](C)(O)C[C@H]1C [Gamithromycin]
Result: 8

Q: Entry C=C[C@]1(C)C[C@@H](OC(=O)CSCCN(CC)CC)[C@]2(C)[C@H](C)CC[C@]3(CCC(=O)[C@H]32)[C@@H](C)[C@@H]1O [Tiamulin] please
Result: 32

Q: Entry CS(=O)(=O)c1ccc([C@@H](O)[C@@H](CF)NC(=O)C(Cl)Cl)cc1 [Florfenicol] please
Result: 8

Q: Entry CNC(C)C1CCC(N)C(OC2C(N)CC(N)C(OC3OCC(C)(O)C(NC)C3O)C2O)O1 (stereo not given) [Gentamicin] please
Result: 4

###

- System: Histophilus somni
- Assay Summary: minimum inhibitory concentration (MIC)
- Conditions: isolate (source animal id): 88
Would you mind telling me the reported minimum inhibitory concentration of each entry?
Dear colleague, please return just the value in µg/mL, with no unit written.

Q: Please tell me: minimum inhibitory concentration of CS(=O)(=O)c1ccc([C@@H](O)[C@@H](CF)NC(=O)C(Cl)Cl)cc1 , system Histophilus somni?
Result: 0.5

Q: Entry C=C[C@]1(C)C[C@@H](OC(=O)CSCCN(CC)CC)[C@]2(C)[C@H](C)CC[C@]3(CCC(=O)[C@H]32)[C@@H](C)[C@@H]1O please
Result: 1

Q: Entry CC[C@H]1OC(=O)C[C@@H](O)[C@H](C)[C@@H](O[C@@H]2O[C@H](C)[C@@H](O[C@H]3C[C@@](C)(O)[C@@H](O)[C@H](C)O3)[C@H](N(C)C)[C@H]2O)[C@@H](CC=O)C[C@@H](C)C(=O)/C=C/C(C)=C/[C@@H]1CO[C@@H]1O[C@H](C)[C@@H](O)[C@@H](OC)[C@H]1OC please
Result: 8

###

Would you mind telling me the reported minimum inhibitory concentration of each entry?
- Tested on: Mannheimia haemolytica
- Assay Summary: minimum inhibitory concentration (MIC)
- Conditions: isolate (source animal id): 49
Dear colleague, please return just the value in µg/mL, with no unit written.

Q: Requested field: minimum inhibitory concentration. Item: CS(=O)(=O)c1ccc([C@@H](O)[C@@H](CF)NC(=O)C(Cl)Cl)cc1
Result: 1

Q: Entry CN1C[C@@H]2C[C@H]1CN2c1cc2c(cc1F)c(=O)c(C(=O)O)cn2C1CC1 please
Result: 0.5

Q: Entry CNC(C)C1CCC(N)C(OC2C(N)CC(N)C(OC3OCC(C)(O)C(NC)C3O)C2O)O1 (stereo unspecified) please
Result: 4

###

- Test system: Enterococcus spp.
- Assay Summary: minimum inhibitory concentration (MIC)
- Conditions: isolate (source animal id): 214
Property Label: minimum inhibitory concentration (µg/mL)
Dear colleague, please return just the value in µg/mL, with no unit written.

Q: Requested field: minimum inhibitory concentration. Item: C=C[C@]1(C)C[C@@H](OC(=O)CSCCN(CC)CC)[C@]2(C)[C@H](C)CC[C@]3(CCC(=O)[C@H]32)[C@@H](C)[C@@H]1O
Result: 16

Q: Entry CC[C@H]1OC(=O)C[C@@H](O)[C@H](C)[C@@H](O[C@@H]2O[C@H](C)[C@@H](O)[C@H](N(C)C)[C@H]2O)[C@@H](CCN2C[C@H](C)C[C@H](C)C2)C[C@@H](C)C(=O)/C=C/C(C)=C/[C@@H]1CO[C@@H]1O[C@H](C)[C@@H](O)[C@@H](OC)[C@H]1OC please
Result: 8

Q: Entry CC1(C)S[C@@H]2[C@H](NC(=O)Cc3ccccc3)C(=O)N2[C@H]1C(=O)O please
Result: 2

Q: Entry CCCNC[C@]1(O)[C@H](C)O[C@@H](O[C@H]2[C@H](C)[C@@H](O[C@@H]3O[C@H](C)C[C@H](N(C)C)[C@H]3O)[C@](C)(O)C[C@@H](C)CN[C@H](C)[C@@H](O)[C@](C)(O)[C@@H](CC)OC(=O)[C@@H]2C)C[C@@]1(C)OC please
Result: 16

Q: Entry CCCN1C[C@H](C)[C@@H](O)[C@](C)(O)[C@@H](CC)OC(=O)[C@H](C)[C@@H](O[C@H]2C[C@@](C)(OC)[C@@H](O)[C@H](C)O2)[C@H](C)[C@@H](O[C@@H]2O[C@H](C)C[C@H](N(C)C)[C@H]2O)[C@](C)(O)C[C@H]1C please
Result: 4

Q: Entry CC[C@H]1OC(=O)C[C@@H](O)[C@H](C)[C@@H](O[C@@H]2O[C@H](C)[C@@H](O)[C@H](N(C)C)[C@H]2O)[C@@H](CCN2CCCCC2)C[C@@H](C)C(=O)/C=C/C(C)=C/[C@@H]1CN1CCCCC1 please
Result: 16

Q: Entry CO/N=C(\C(=O)N[C@@H]1C(=O)N2C(C(=O)O)=C(CSC(=O)c3ccco3)CS[C@H]12)c1csc(N)n1 please
Result: 8

###

Would you mind telling me the reported minimum inhibitory concentration of each entry?
- Tested on: Escherichia coli
- Assay Summary: minimum inhibitory concentration (MIC)
- Conditions: isolate (source animal id): 104

Q: Requested field: minimum inhibitory concentration. Item: CO/N=C(\C(=O)N[C@@H]1C(=O)N2C(C(=O)O)=C(CSC(=O)c3ccco3)CS[C@H]12)c1csc(N)n1
Result: ≤ 0.25 µg/mL

Q: Entry CCCN1C[C@H](C)[C@@H](O)[C@](C)(O)[C@@H](CC)OC(=O)[C@H](C)[C@@H](O[C@H]2C[C@@](C)(OC)[C@@H](O)[C@H](C)O2)[C@H](C)[C@@H](O[C@@H]2O[C@H](C)C[C@H](N(C)C)[C@H]2O)[C@](C)(O)C[C@H]1C please
Result: 8 µg/mL

Q: Entry COc1cc(Cc2cnc(N)nc2N)cc(OC)c1OC.Cc1cc(NS(=O)(=O)c2ccc(N)cc2)no1 please
Result: ≤ 2 µg/mL

Q: Entry CCCNC[C@]1(O)[C@H](C)O[C@@H](O[C@H]2[C@H](C)[C@@H](O[C@@H]3O[C@H](C)C[C@H](N(C)C)[C@H]3O)[C@](C)(O)C[C@@H](C)CN[C@H](C)[C@@H](O)[C@](C)(O)[C@@H](CC)OC(=O)[C@@H]2C)C[C@@]1(C)OC please
Result: 16 µg/mL

Q: Entry CC1(C)S[C@@H]2[C@H](NC(=O)Cc3ccccc3)C(=O)N2[C@H]1C(=O)O please
Result: > 8 µg/mL

Q: Entry CCC[C@@H]1C[C@@H](C(=O)N[C@@H]([C@H]2O[C@H](SC)[C@H](O)[C@@H](O)[C@H]2O)[C@H](C)Cl)N(C)C1 please
Result: > 16 µg/mL

Q: Entry CCN1CCN(c2cc3c(cc2F)c(=O)c(C(=O)O)cn3C2CC2)CC1 please
Result: ≤ 0.12 µg/mL
